tested-system: Serine/threonine-protein kinase pim-3 (Homo sapiens);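 further: mean inhibition of PIM3 kinase activity, recorded in the GSK_PKIS screening set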
test-parameters: at 0.1 µM
The reader will find reported inhibition values listed item by item below.
measurement-name: inhibition (%)

compound-string	experimental-value
O=C(Nc1n[nH]c2nnc(-c3cccnc3)cc12)C1CC1	26.8
CN(C)CCNC(=O)Nc1ccc(N(C)c2ccnc(Nc3ccc(CS(C)(=O)=O)cc3)n2)cc1	-0.48
Fc1cccc(COc2ccc(Nc3ncncc3C#Cc3ccccc3)cc2Cl)c1	-0.8
c1ccc(-c2n[nH]cc2-c2ccnc(-c3ccc(OCCn4ccnc4)cc3)c2)nc1	0.51
COc1ccc(Nc2ncc(-c3ccccc3)o2)cc1OC	0.89
NS(=O)(=O)c1cccc(N/C=C2\C(=O)Nc3ccccc32)c1	-0.71
COc1cc2c(cc1Nc1nc(Nc3cccc(F)c3C(N)=O)c3cc[nH]c3n1)N(C(=O)CN1CCN(C(C)C)CC1)CC2	0.01
CN(c1ccc(NC(=O)NCCN2CCOCC2)cc1)c1ccnc(Nc2ccc(CS(C)(=O)=O)cc2)n1	0.45
COc1ccc(-c2nn3ncccc3c2-c2ccnc(Nc3ccc(F)c(F)c3)n2)cc1	4.52
COc1cc(N2CCN(C(C)C)CC2)ccc1Nc1nc(Nc2cccc3ncccc23)c2cc[nH]c2n1	-0.71
CS(=O)(=O)Nc1ccc(-c2cc(-c3ccccc3)cc(C(N)=O)c2N)cc1	0.62
COc1cc(N2CCN(C(C)C)CC2)ccc1Nc1nc(Nc2cccc(F)c2C(=O)O)c2cc[nH]c2n1	1
CC(C)c1ccc(-c2cc(-c3c[nH]nc3-c3ccccn3)ccn2)cc1	0.23
Cc1cc(O)cc(C)c1/C=C/c1cncc(C(=O)OC(C)(C)C)c1	-1.42
COC(=O)Nc1nc2cc(Oc3ccc(NC(=O)Nc4ccccc4)cc3)ccc2[nH]1	-0.27
COc1cccc(Nc2nccc(-c3cnn4ncccc34)n2)c1	2.39
O=C(O[C@H]1CN[C@H](C#Cc2cc3ncnc(Nc4ccc5c(cnn5Cc5ccccc5)c4)c3s2)C1)N1CCOCC1	-0.77
CS(=O)(=O)CCNCc1ccc(-c2ccc3ncnc(Nc4ccc(OCc5cccc(C(F)(F)F)c5)cc4)c3c2)o1	1.17
CCn1c(-c2nonc2N)nc2cncc(C(=O)NCCNC)c21	26.3
N#Cc1ccc2c(-c3ccnc(NC4CC4)n3)c(-c3ccc(F)cc3)nn2c1	-0.27

###

Recorded inhibition by entry
tested-system: Tyrosine-protein kinase BTK (Homo sapiens) (UniProt Q06187);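 further: values are averaged percent inhibition of BTK enzyme activity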
Sequence (Q06187 whole entry): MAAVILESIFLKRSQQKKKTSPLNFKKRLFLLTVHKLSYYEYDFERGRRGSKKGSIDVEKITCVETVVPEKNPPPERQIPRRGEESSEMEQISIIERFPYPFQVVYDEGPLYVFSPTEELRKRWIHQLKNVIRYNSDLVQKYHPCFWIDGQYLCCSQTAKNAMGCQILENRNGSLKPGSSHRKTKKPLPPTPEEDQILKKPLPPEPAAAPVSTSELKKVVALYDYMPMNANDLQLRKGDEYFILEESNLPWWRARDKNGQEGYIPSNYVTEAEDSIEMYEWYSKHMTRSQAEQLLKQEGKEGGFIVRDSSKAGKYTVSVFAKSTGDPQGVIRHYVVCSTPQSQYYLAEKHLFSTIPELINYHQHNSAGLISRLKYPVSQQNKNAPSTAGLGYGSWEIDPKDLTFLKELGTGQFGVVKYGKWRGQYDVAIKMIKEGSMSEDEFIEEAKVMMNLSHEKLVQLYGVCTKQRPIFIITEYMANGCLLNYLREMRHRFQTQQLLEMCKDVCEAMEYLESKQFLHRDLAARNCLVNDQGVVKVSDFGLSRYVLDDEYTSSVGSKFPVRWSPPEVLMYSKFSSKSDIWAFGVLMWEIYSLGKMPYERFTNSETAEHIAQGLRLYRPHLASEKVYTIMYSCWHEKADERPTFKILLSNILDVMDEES
test-parameters: at 0.1 µM
measurement-name: inhibition (%)

compound-string	measurement-name	experimental-value
CS(=O)(=O)Nc1ccc(-c2ccc3c(NC(=O)C4CC4)n[nH]c3c2)cc1	inhibition	1
CNC(=O)c1ncccc1Nc1nc(Nc2cc3c(cc2OC)CCCN3C(=O)CN(C)C)nc2[nH]ccc12	inhibition	0.46
NS(=O)(=O)c1ccc(N/N=C2\C(=O)Nc3cccc(CCc4ccncc4)c32)cc1	inhibition	0.17
CNC(=O)c1cncc(/C=C/c2ccccc2C)c1	inhibition	0.03
Cc1cc(O)cc(C)c1/C=C/c1cncc(C(N)=O)c1	inhibition	-0.17
N#Cc1cccc(Nc2ncc(-c3ccccc3)o2)c1	inhibition	1.01
Cc1cc(O)cc(C)c1/C=C/c1cncc(C(=O)OC(C)(C)C)c1	inhibition	0.92
COc1ccc(-c2nn3ncccc3c2-c2ccnc(Nc3ccc(F)c(F)c3)n2)cc1	inhibition	0.77
CCCNc1cccc(-n2ncc3c(N/N=C/c4ccncc4)ncnc32)c1	inhibition	1.43
CCS(=O)(=O)c1ccc(OC)c(Nc2ncc(-c3cccc(C(C)=O)c3)o2)c1	inhibition	2.71
